The reported numbers originate from ChEMBL document CHEMBL4414669.

test system: Pseudomonas aeruginosa; assay: Antibacterial activity against Pseudomonas aeruginosa ATCC 27853 incubated for 24 hrs by broth microdilution method; type: functional; settings: ATCC 27853, 24 h
propertyLabel: MIC

Challenge: Fill in the blank: the reported MIC of C/C=C(\C(C)C)[C@H](O)C[C@@H](C)[C@H]1CC[C@@]2(C)[C@@H]3CC[C@H]4[C@H](C)[C@@H](O[C@@H]5OC[C@@H](O)[C@H](O)[C@H]5O)CC[C@]4(O)CC3=CC[C@]12C is ____.
Response given: > 125 µg/mL

Challenge: Fill in the blank: the reported MIC of CN(C)[C@@H]1C(O)=C(C(N)=O)C(=O)[C@@]2(O)C(O)=C3C(=O)c4c(O)cccc4[C@@](C)(O)[C@H]3C[C@@H]12 is ____.
Response given: 16 µg/mL

Challenge: Fill in the blank: the reported MIC of C/C=C(\C(C)C)[C@H](O)C[C@@H](C)[C@H]1CC[C@@]2(C)[C@@H]3CC[C@H]4[C@H](C)[C@@H](O[C@@H]5O[C@@H](C)[C@H](O)[C@@H](O)[C@H]5O)CC[C@]4(O)CC3=CC[C@]12C is ____.
Response given: > 125 µg/mL
